target-or-test-system: c-Src kinase (Homo sapiens)
Sequence (P12931 whole entry): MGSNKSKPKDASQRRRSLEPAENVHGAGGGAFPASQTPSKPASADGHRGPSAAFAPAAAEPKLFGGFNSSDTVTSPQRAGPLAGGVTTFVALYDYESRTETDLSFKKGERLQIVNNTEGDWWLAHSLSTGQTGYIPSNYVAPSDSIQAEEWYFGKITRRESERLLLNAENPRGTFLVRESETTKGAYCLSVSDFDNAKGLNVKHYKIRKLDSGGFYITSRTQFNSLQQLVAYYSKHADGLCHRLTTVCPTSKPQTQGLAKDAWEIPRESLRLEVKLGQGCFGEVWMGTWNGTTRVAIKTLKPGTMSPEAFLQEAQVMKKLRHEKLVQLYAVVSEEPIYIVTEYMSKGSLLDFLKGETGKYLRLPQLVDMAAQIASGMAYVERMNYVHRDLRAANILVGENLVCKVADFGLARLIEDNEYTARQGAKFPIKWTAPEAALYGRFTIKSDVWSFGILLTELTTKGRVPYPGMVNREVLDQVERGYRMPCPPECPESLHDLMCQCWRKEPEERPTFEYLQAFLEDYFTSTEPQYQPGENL
measured-metric: pIC50
Keep it numeric: pIC50 is minus log10 of the concentration in mol/L.

Quick one: pIC50 for COc1ccc(C2C(C#N)=C(N)Oc3ccc4ccccc4c32)cc1 (stereo not shown) ?
4.46
